Target: Vps35 (retromer core complex Vps35–Vps29–Vps26) (Homo sapiens, UniProt Q96QK1+Q9UBQ0)
Assay: microscale thermophoresis
pKd: −log10 of the molar value.
property: pKd

| query smiles | assay target | data value |
| --- | --- | --- |
| N=C(N)SCc1ccc(CSC(=N)N)s1 | Vps35 (retromer core complex Vps35–Vps29–Vps26) (Homo sapiens, UniProt Q96QK1+Q9UBQ0) | ~5.30 |
